Documented pKd across a set of binders
Molecular target: T1, EsCas13d, nuclease-dead (Eubacterium siraeum, UniProt B0MS50, R295A;H300A;R849A;H854A)
T1 sequence: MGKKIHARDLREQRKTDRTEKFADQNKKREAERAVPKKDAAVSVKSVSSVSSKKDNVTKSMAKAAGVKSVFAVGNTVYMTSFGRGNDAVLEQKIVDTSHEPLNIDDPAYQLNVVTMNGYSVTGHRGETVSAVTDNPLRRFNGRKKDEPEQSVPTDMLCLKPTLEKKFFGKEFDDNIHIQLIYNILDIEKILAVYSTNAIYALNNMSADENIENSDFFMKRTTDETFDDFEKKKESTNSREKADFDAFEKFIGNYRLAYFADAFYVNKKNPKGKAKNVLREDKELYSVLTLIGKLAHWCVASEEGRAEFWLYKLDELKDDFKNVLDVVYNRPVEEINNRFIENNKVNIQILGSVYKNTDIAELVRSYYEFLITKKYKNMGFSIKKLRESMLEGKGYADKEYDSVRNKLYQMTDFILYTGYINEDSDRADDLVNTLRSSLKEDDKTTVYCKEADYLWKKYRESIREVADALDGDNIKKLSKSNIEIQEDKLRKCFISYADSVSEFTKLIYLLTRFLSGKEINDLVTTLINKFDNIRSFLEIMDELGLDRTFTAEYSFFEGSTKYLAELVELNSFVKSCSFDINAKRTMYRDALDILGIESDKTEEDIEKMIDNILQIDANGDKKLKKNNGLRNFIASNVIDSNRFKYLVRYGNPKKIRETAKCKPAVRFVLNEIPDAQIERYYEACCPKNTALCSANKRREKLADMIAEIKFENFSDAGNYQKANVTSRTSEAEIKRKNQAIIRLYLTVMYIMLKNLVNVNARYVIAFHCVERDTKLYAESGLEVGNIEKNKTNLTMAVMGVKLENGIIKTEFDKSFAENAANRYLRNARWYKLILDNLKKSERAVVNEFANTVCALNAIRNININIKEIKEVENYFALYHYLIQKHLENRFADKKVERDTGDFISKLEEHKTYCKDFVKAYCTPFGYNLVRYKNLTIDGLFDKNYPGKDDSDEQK
Test: crRNA (strand 1, pre-loaded); Mg2+; 40 mM Tris-HCl pH 7.5, 150 mM NaCl, 6 mM MgCl2, 1 mM DTT, 0.1% Tween-20, 0.2 mg/ml BSA; 25 C; 10 min per concentration, then washed
Conditions: tags: His6-TwinStrep-SUMO cleaved; N-terminal SNAP kept (SNAP-Surface 488); label: 3' end held by stalled T7 RNA polymerase
Keep it numeric: pKd is minus log10 of the concentration in mol/L.

Field: example entries. Status: answers known.
BINDER: target 1 insA 3' of 17,insC 3' of 10 (mixed) RNA 1: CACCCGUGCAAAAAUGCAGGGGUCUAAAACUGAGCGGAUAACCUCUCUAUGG RNA 2: GGGAAUGGAUCCACAUCUACGAAUUCGUACCAUAGAAGAGGUUCAUCCGCUCACCGAGAUCGGAAGAGCACACGU
REPORTED ENDPOINT: pKd
MEASURED RESULT: 7.57
//
BINDER: target 1 U11G,G12A (mixed) RNA 1: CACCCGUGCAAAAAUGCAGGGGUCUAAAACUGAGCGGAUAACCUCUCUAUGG RNA 2: GGGAAUGGAUCCACAUCUACGAAUUCGUACCAUAGAGAGAGUAUCCGCUCACCGAGAUCGGAAGAGCACACGU
REPORTED ENDPOINT: pKd
MEASURED RESULT: 8.37
//
BINDER: target 1 C2A,A9U (mixed) RNA 1: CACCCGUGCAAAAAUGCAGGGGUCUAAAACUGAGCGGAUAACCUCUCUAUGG RNA 2: GGGAAUGGAUCCACAUCUACGAAUUCGUACCAUAGAGAGGUUUUCCGCUAACCGAGAUCGGAAGAGCACACGU
REPORTED ENDPOINT: pKd
MEASURED RESULT: 8.08

Exercise: What value of measured pKd is listed for target 1 insC 3' of 9,insC 3' of 1 (mixed) RNA 1: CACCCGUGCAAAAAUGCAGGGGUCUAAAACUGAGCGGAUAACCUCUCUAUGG RNA 2: GGGAAUGGAUCCACAUCUACGAAUUCGUACCAUAGAGAGGUUACUCCGCUCACCCGAGAUCGGAAGAGCACACGU ?
Key: 8.03
